Hey, just so you know, these numbers are from paper PMC7826789.

# Percent Control annotations
Test system: CAMK2B;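 note: KINOMEscan scanMAX binding as percent activity remaining versus control; lower means stronger binding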
Conditions: Compound Concentration (nM):1000

COMPOUND	TARGET OR SYSTEM	Percent Control
COc1ccc2c(-c3ccnc(Nc4cccc(OC(F)(F)F)c4)n3)cnn2n1 [GW810372X]	CAMK2B	100%
COc1cc(N2CCN(C(C)C)CC2)ccc1Nc1nc(Nc2ccc(F)cc2C(=O)NC[C@@H](O)CO)c2cc[nH]c2n1 [GSK1392956A]	CAMK2B	64%
COc1cccc(-n2ncc3c(N/N=C/c4ccncc4)ncnc32)c1 [GW784752X]	CAMK2B	82%
CN1CCN(C(=O)c2ccc(NC(=O)Nc3ccc(N(C)c4ccnc(Nc5ccc(CS(C)(=O)=O)cc5)n4)cc3)cc2)CC1.Cl [GW830263A]	CAMK2B	86%
